target: A2AR (Mus musculus, UniProt Q60613)
Sequence (Q60613 whole entry): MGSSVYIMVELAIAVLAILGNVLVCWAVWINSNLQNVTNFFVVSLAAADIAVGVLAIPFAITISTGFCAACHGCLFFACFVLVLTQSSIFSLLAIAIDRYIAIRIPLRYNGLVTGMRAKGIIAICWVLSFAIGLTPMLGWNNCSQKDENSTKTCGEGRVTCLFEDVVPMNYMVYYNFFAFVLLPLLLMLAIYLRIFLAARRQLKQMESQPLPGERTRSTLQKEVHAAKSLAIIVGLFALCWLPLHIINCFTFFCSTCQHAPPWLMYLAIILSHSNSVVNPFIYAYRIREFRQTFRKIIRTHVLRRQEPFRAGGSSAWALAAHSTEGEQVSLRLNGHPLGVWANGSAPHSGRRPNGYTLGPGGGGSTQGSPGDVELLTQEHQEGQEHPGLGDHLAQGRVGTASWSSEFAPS
measured metric: Kd (µM)

molecule: COc1ccc(N2CCOCC2)c2sc(NC(=O)c3ccc([18F])nc3)nc12 [[^18F]TOZ1]
measured metric: Kd
units: µM
numeric value: 0.023
